TARGET_SYSTEM: human ETB receptor (Homo sapiens)
Construct: expressed in transfected cells; host or cells: COS7 cells
Sequence (P24530 27-442): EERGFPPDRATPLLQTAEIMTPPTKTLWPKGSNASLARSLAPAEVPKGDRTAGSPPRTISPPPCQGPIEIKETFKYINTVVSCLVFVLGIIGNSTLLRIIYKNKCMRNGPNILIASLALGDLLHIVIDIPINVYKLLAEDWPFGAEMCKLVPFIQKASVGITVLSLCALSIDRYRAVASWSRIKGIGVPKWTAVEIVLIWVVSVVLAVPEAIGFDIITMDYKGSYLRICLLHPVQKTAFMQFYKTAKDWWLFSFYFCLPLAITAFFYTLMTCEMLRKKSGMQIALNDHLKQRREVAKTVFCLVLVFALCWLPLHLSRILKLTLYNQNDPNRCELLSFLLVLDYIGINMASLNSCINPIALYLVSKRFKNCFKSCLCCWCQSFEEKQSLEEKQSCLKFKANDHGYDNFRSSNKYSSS
ASSAY_PROTOCOL: Endothelin binding inhibition, Binding Test #2: competition with 125I-ET-1 for ETB receptors on transfected COS7 cell membranes
MEASUREMENT_PARAMETERS: incubation at 4° C. (values without †)
READOUT_NAME: IC50 (µM)
Give bare numbers, in µM.

> print(dat)
                                   compound                      target.system  measure.unit  experimental.value
1  Cc1noc(NS(=O)(=O)c2c(Cc3ccc(N(C)C)cc3)sc3ccccc23)c1Cl  human ETB receptor (Homo sapiens)            µM               0.477

Provide the reported IC50 of each entry below, same order.
1. Cc1noc(NS(=O)(=O)c2sccc2CC=Cc2cc3c(cc2COC2CCCCO2)OCO3)c1Br (centres unmarked)
2. Cc1ccc(NC(=O)c2sccc2S(=O)(=O)Nc2onc(C)c2Cl)cc1
3. Cc1ccc(NC(=O)c2sccc2S(=O)(=O)Nc2onc(C)c2C)cc1
4. COC(=O)c1sccc1S(=O)(=O)Nc1onc(C)c1Cl
5. COc1cccc(NCc2sccc2S(=O)(=O)Nc2onc(C)c2C)c1
6. Cc1noc(NS(=O)(=O)c2ccsc2CO)c1Br
7. Cc1noc(NS(=O)(=O)c2csc(-c3ccccc3C=O)c2)c1Br

1: 4.14; 2: 2.93; 3: 11.3; 4: 53.2; 5: 5.34; 6: 44.1; 7: 0.529

Provide the reported IC50 of each entry below, same order.
1. Cc1noc(NS(=O)(=O)c2ccsc2C(O)c2ccccc2)c1Br (centres unmarked)
2. Cc1noc(NS(=O)(=O)c2ccsc2C(=O)N(C)c2ccccc2)c1Br

[9.37, 16]

###

Assign pIC50 to each entry below.
TARGET_SYSTEM: human ETA receptors (Homo sapiens)
Construct: endogenous in cells; host or cells: TE 671 cells (ATCC HTB 139), membrane preparation
Sequence (P25101 21-427): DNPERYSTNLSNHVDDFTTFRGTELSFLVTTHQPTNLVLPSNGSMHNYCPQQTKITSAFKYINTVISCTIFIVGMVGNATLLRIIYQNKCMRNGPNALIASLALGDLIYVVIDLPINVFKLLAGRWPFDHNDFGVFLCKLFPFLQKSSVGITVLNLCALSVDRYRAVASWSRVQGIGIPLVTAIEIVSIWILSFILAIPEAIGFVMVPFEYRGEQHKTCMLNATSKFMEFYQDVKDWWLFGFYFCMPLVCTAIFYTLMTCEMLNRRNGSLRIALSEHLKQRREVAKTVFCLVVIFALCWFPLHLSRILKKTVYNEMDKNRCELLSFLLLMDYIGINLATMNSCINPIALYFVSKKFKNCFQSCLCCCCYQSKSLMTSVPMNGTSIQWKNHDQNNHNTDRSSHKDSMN
ASSAY_PROTOCOL: Endothelin binding inhibition, Binding Test #1: competition with 125I-ET-1 for ETA receptors on TE 671 cell membranes
MEASUREMENT_PARAMETERS: incubation at 24° C. (values marked †)
Give bare numbers, as −log10 of the molar value.

Solved entries (count: 4):
> print(dat)
                                smiles.data                       target.system  experimental.value
1  Cc1noc(NS(=O)(=O)c2ccsc2C(=O)Nc2c(CC#N)cc3c(c2CC#N)OCO3)c1Cl  human ETA receptors (Homo sapiens)                8.42
2  Cc1cc(C)c(C(=O)O)c(C)c1NC(=O)c1sccc1S(=O)(=O)Nc1onc(C)c1Cl  human ETA receptors (Homo sapiens)                7.92
3  Cc1ccccc1OC(=O)c1sccc1S(=O)(=O)Nc1onc(C)c1Br  human ETA receptors (Homo sapiens)                6.16
4  Cc1noc(NS(=O)(=O)c2ccsc2Cc2ccc3c(c2)OCO3)c1Br  human ETA receptors (Homo sapiens)                6.57

With those in mind, consider the next molecule.
Please look at this molecule and report its pIC50: Cc1noc(NS(=O)(=O)c2ccsc2C(=O)OCc2ccc3c(c2)OCO3)c1Cl 6.38

This collection of values is drawn from patent US6632829B2.
